experiment: chemical genetic growth profiling, strain panel (AID 1159580);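 further: tested at 20 µM; growth read once vehicle control cultures reached saturation at 30 °C; 1 = growth at the plate median or of vehicle wells; lower values mean less growth of the strain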; conditions: S. cerevisiae deletion strains, growth OD, locus YLR370C, strain arc18, active compounds read low
Among all 5,500 compounds or so, about 2,000 (36%) were called active. Roughly 18% stayed inconclusive and do not appear here. This is one part of the list.
readout.kind: normalized growth
Please give the numeric answer without any surrounding text.

Here are 5 molecules together with their reported answers.
NC(=NCCC[C@H](N)C(=O)O)N[N+](=O)[O-]
1.02
C=C1CCC2(OC1)OC1CC3C4CC=C5CC(O)CC(O)C5(C)C4CCC3(C)C1C2C (configuration not stated)
1.02
NC(=O)c1ncn([C@@H]2O[C@H](CO)[C@@H](O)[C@H]2O)n1
0.984
CC/C(=C(/CC)c1ccc(O)cc1)c1ccc(O)cc1
1.01
CC(=O)OCC1=C(C(=O)O)N2C(=O)[C@@H](NC(=O)Cc3cccs3)[C@H]2SC1
1

Now examine the next entry.
What does the data say about its normalized growth? Entry: "COC(=O)c1c(C)cc(OC)cc1O" 0.986
